Taken from PubChem BioAssay (NCI).

System: OVCAR-4 ovarian
Test: NCI tumour cell line growth inhibition, 48 h
What TGI was measured for each of the following?

// O=c1cc(-c2ccc(F)cc2)[nH]c2ncc(Cl)cc12 : TGI value = > 100 µM

// COc1cc(/C=C2\C(=O)N(c3ccccc3)C(c3ccccc3)S2(=O)=O)cc(OC)c1OC (centres undefined) : TGI value = > 100 µM

// CN(C)C(=O)c1cc2cnc(Nc3ccc(-c4csc5c(=S)cc(N6CCOCC6)oc45)cc3)nc2n1C1CCCC1 : TGI value = > 50 µM

// NN/C(=N\S(=O)(=O)c1cc2ccccc2s1)Nc1ccc(Cl)cc1 : TGI value = 38.5 µM

// CC12C(=O)CC(CC1=O)C2(C)C : TGI value = > 100 µM

// O=C(N/N=C\c1cccc2c([N+](=O)[O-])cccc12)Nc1ccccc1 : TGI value = 29.2 µM

// O=C1/C(=C/c2ccc([N+](=O)[O-])cc2)C(=O)N(c2ccccc2)C1c1ccccc1 (centres undefined) : TGI value = > 10 µM

// CCOc1cn(C2CC(O)C(CO)O2)c(=O)[nH]c1=O (centres undefined) : TGI value = > 100 µM

// COC[C@@H](C[C@H]1O[C@@](O)([C@H](O)[C@@H]2C[C@H](OC)[C@@H](O)CC/C=C(C)/C=C/[C@@H](O[C@@H]3O[C@@H](C)[C@H](OC)[C@@H](O)[C@@H]3O)[C@H](C)/C=C(C)/C=C(C)/C=C(\C)C(=O)O2)[C@H](C)[C@@H](O)[C@H]1C)O[C@H]1C[C@](C)(O)[C@@H](O[C@H]2C[C@@H](OC)[C@H](O)[C@@H](C)O2)C(C)O1 (some centres undefined) : TGI value = > 100 µM

// CCOC(=O)CC1(C(=O)OCC)c2[nH]c3ccccc3c2CCN1Cc1ccccc1 (centres undefined) : TGI value = 55.2 µM

// O=C(c1ccc(N=Cc2ccccc2O)cc1)c1ccc(N=Cc2ccccc2O)cc1 : TGI value = > 100 µM

// OCC(O)COCn1nncc1Cn1ncc2c(SCc3ccccc3)ncnc21 (centres undefined) : TGI value = > 100 µM

// COc1ccc(C(=C(Cl)c2ccccc2)c2ccc(OC)cc2)cc1 : TGI value = > 100 µM

// Cn1cc(NC(=O)c2cc(NC(=O)CN=C(N)N)cn2C)cc1C(=O)NCCC(=N)N : TGI value = > 100 µM

* * *

System: OVCAR-4 ovarian
Assay: NCI tumour cell line growth inhibition, 48 h
What TGI was measured for each of the following?

// O=C(N/N=C/c1ccccc1)c1c(-c2cccnc2)cnc2ccccc12 : TGI value = > 100 µM

// Cc1ccc([N+](=O)[O-])cc1S(=O)(=O)Nc1ccc(C2=NNC(c3ccccc3)C2)cc1 (centres undefined) : TGI value = 54.4 µM

// COC(=O)/C(=N\Nc1nnc(C)n1N)C(C#N)c1ccc(Cl)cc1 (centres undefined) : TGI value = > 100 µM

// Clc1ccc(C2=Nn3c(COc4ccccc4Cl)nnc3SC2)c(Cl)c1 : TGI value = > 100 µM

* * *

System: SK-MEL-5 melanoma
Assay: NCI tumour cell line growth inhibition, 48 h
What TGI was measured for each of the following?
# value in µM; strip the unit string

// Cc1cc(Cl)ccc1N=C1NC(=O)C(CC(=O)Nc2ccc([N+](=O)[O-])cc2[N+](=O)[O-])S1 (stereo not given) : TGI value = 31.1

// COC(=O)[C@H](C)NC(=O)NC(=O)NC(=O)CI : TGI value = 31.8

// CN1c2ccc(Cl)cc2C(=O)NC1c1ccc([N+](=O)[O-])s1 (stereo not given) : TGI value = 31.6

* * *

Test system: MDA-MB-231 breast
Assay: NCI tumour cell line growth inhibition, 48 h
What TGI was measured for each of the following?

// CN(C)C(=O)c1cc2cnc(Nc3ccc(-c4csc5c(=S)cc(N6CCOCC6)oc45)cc3)nc2n1C1CCCC1 : TGI value = > 50 µM

// c1ccc2c(c1)ccn2CCc1c[nH]c2ccccc12 : TGI value = > 10 µM

// N=C(N)c1ccc(C(NC(=O)CNS(=O)(=O)c2ccc3ccccc3c2)P(=O)(Oc2ccccc2)Oc2ccccc2)cc1 (stereo not given) : TGI value = > 100 µM

// COC(=O)[C@@H](C)CNS(=O)(=O)N(c1cc(C(F)(F)F)cc(C(F)(F)F)c1)C1CCN(Cc2ccc(F)cc2)CC1 : TGI value = 29.3 µM

// COc1cc(CNCc2cc(OC)c(OC)c(OC)c2)cc(OC)c1OC : TGI value = > 10 µM

// COc1cc(Cn2c3c(c4cc(O)ccc42)Cc2ccccc2C3=O)cc(OC)c1 : TGI value = > 100 µM

// Cc1ccc(SCC(CF)OC(C)n2cnc3c(=O)[nH]c(N)nc32)cc1 (stereo not given) : TGI value = > 100 µM

// CCCN1CCC(=O)N(CCC(F)(F)C(F)(F)C(F)(F)C(F)(F)C(F)(F)C(F)(F)F)C1=S : TGI value = > 100 µM

// O=C1OC(C(O)CO)C(=O)C1=O (stereo not given) : TGI value = > 10000 µM

// NS(=O)(=O)c1ccc(N=Nc2c(O)[nH]c3ccc(-c4cnco4)cc23)cc1 : TGI value = > 25 µM

* * *

Tested on: MALME-3M melanoma
Test: NCI tumour cell line growth inhibition, 48 h
recorded_metric: TGI

// C[C@]12CCC(=O)O[C@H]1CCCCO2 : TGI value = > 100 µM

// CCC[CH2][Sn]1([CH2]CCC)[O]CC(CN2CCCC2)[O]1 (stereo not drawn) : TGI value = 17.4 µM

// Nc1nc(N)c2ncn(-c3ccc(Cl)cc3)c2n1 : TGI value = > 100 µM

* * *

Test system: MDA-MB-231 breast
Test: NCI tumour cell line growth inhibition, 48 h
recorded_metric: TGI

// O=C(c1ccc(N=Cc2ccccc2O)cc1)c1ccc(N=Cc2ccccc2O)cc1 : TGI value = > 100 µM

// OCC(O)COCn1nncc1Cn1ncc2c(SCc3ccccc3)ncnc21 (stereo not given) : TGI value = > 100 µM

// COc1ccc(Cn2cc3c(c2-c2ccccc2)CC(C)(C)c2cnoc2-3)cc1 : TGI value = > 100 µM

// O=c1cc(-c2ccc(F)cc2)[nH]c2ncc(Cl)cc12 : TGI value = > 100 µM

// COc1cc(-c2ccc3c(c2)NC(=O)/C3=C\c2ccc[nH]2)ccc1O : TGI value = > 50 µM

* * *

What TGI was measured for each of the following?
System: MOLT-4 leukemia
Test: NCI tumour cell line growth inhibition, 48 h

// COc1ccc(C(=C(Cl)c2ccccc2)c2ccc(OC)cc2)cc1 : TGI value = > 100 µM

// C=C1C(=O)O[C@H]2[C@H]1CC/C(COC(=O)C(=O)c1cn(Cc3ccccc3)c3ccccc13)=C\CC[C@@]1(C)O[C@@H]21 : TGI value = 6.83 µM

// CS/C(N)=N\NC(=O)CCC(=O)Nc1ccccc1C(F)(F)F : TGI value = > 100 µM

// Oc1c(CN2CCOCC2)ccc2cccnc12 : TGI value = > 10 µM

// Oc1ccc(-c2nc(-c3cccnc3)c(-c3ccc(Cl)cc3)[nH]2)cc1 : TGI value = 18.1 µM

// CC(C)(C)c1cc(Br)c(O)c(CN(Cc2cc(C(C)(C)C)cc(Br)c2O)C2CCCCC2)c1 : TGI value = 26 µM

// N#CC(NNC(=O)Cc1ccccc1)c1c(O)ccc2ccccc12 (centres undefined) : TGI value = > 48.3 µM

// CCOC(=O)c1c(C)n(Cc2ccc(Cl)cc2Cl)c2c1c(CN(C)C)c(O)c1[nH]cnc12 : TGI value = 4.52 µM

// CNc1ccc(C(=O)CC(O)CCC(C)C2OC(=O)CC(O)CC(=O)CC(O)CC(O)CC(O)CC(O)CC3(O)CC(O)C(C(=O)OC)C(CC(O[C@@H]4O[C@H](C)[C@@H](O)[C@H](N)[C@@H]4O)/C=C/C=C/C=C/C=C/C=C/C=C/C=C/C2C)O3)cc1 (some centres undefined) : TGI value = 6.31 µM

// CC1(C)NC2C(=O)c3c([nH]c4ccccc34)[C@]3(C)CCC1CC23 (some centres undefined) : TGI value = > 100 µM

// CSc1ccc2c(cc1=O)[C@@H](NC(=O)c1ccc(N)cc1)CCc1cc(O)c(O)c(O)c1-2 : TGI value = > 100 µM

// NC(N)=NCCC[C@H](N)C(=O)NCC(=O)N[C@@H](CC(=O)O)c1ncc(NC(=O)C(F)(F)F)o1 : TGI value = > 25 µM

// Cc1ccc(/C=C2\CCCc3ccccc3C2=O)cc1 : TGI value = 52.8 µM

// COC(CNC(=O)C(C)NC(=O)CCc1ccccc1)OC (centres undefined) : TGI value = > 100 µM

// O=C(O)C1OC(n2cc(F)c(=O)[nH]c2=O)CC1O (centres undefined) : TGI value = > 56.2 µM

// CC(=O)[O-].CCN(CC)c1ccc(C=NCCN=Cc2ccc(N(CC)CC)cc2[O-])c([O-])c1.[Mn+3] : TGI value = > 100 µM

// COc1ccccc1/C=C1\SC(=S)N(/C=C2\C(=O)Oc3ccccc3C2=O)C1=O : TGI value = > 100 µM

// O=C(Cc1ccccc1)NN1C(=O)C(Cl)C1c1cc(Br)ccc1O (centres undefined) : TGI value = 8.07 µM

// C[N+](C)(C)CC1CCCCCCCCCCC1=O (centres undefined) : TGI value = > 100 µM
